All figures here come from patent US20090298765A1.

- Experimental System: T1, human OT7T175 (metastin receptor) (human, UniProt Q969F8 1-398)
- T1 construct: expressed on CHO cells; also called hOT7T175; hOT7T175-expressed CHO cells
- T1 sequence (Q969F8 whole entry L364H): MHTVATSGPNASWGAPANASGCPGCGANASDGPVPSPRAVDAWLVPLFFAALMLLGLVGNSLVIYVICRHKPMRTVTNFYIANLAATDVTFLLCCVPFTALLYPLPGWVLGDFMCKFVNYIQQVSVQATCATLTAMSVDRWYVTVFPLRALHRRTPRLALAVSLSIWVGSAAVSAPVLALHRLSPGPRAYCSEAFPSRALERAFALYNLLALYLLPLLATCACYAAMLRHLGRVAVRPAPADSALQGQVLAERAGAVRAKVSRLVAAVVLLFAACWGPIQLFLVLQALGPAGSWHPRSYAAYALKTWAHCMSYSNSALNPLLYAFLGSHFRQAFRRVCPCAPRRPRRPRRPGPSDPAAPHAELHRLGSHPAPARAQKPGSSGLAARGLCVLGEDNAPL
- Assay Summary: competition with Cy-5 metastin (40-54) on hOT7T175-CHO cells, FMAT
Non-standard residues stand in square brackets, D forms with d. No end group written: not given here. *: point of attachment. Propanoyl(3-indol-3-yl) = O=C(CCc1c[nH]c2ccccc12)*; 1Nal = N[C@@H](Cc1cccc2ccccc12)C(=O)O; Arg(Me) = CNC(=N)NCCC[C@H](N)C(=O)O; azaGly = NNC(=O)O
pIC50 values, listed per item
Friendly reminder that pIC50 comes from taking -log10 of the concentration in mol/L.

Binder	Measured Metric	Readout Value
[dY]N[dW]NSFGL[Arg(Me)]F-NH2 (also called Compound No. 142) [[D-Tyr1,D-Trp3,Arg(Me)9]MS10]	pIC50	7.59
YNWNSF[azaGly]L[Arg(Me)]F-NH2 (also: bond 1-2 CONH replaced by CH2NH, also called Compound No. 299) [[1Ψ2,CH2NH,AzaGly7,Arg(Me)9]-MS10]	pIC50	8.92
[dY]NWNTF[azaGly]L[Arg(Me)]F-NH2 (N-terminus assumed; SMILES CNC(=N)NCCC[C@H](NC(=O)[C@H](CC(C)C)NC(=O)NNC(=O)[C@H](Cc1ccccc1)NC(=O)[C@@H](NC(=O)[C@H](CC(N)=O)NC(=O)[C@H](Cc1c[nH]c2ccccc12)NC(=O)[C@H](CC(N)=O)NC(=O)[C@H](N)Cc1ccc(O)cc1)[C@@H](C)O)C(=O)N[C@@H](Cc1ccccc1)C(N)=O, also called Compound No. 297) [[D-Tyr1,Thr5,AzaGly7,Arg(Me)9]MS10]	pIC50	9.03
[dY]NWNSFGL[Arg(Me)]F-NH2 (also: bond 6-7 CONH replaced by CSNH (thioamide), also called Compound No. 296) [[6Ψ7,CSNH,D-Tyr1,Arg(Me)9]MS10]	pIC50	7.85
[dY]NSNSF[azaGly]L[Arg(Me)]F-NH2 (also called Compound No. 191) [[D-Tyr1,Ser3,AzaGly7,Arg(Me)9]MS10]	pIC50	6.52
{Propanoyl(3-indol-3-yl)}-NSF[azaGly]L[Arg(Me)]F-NH2 (also: also named 1-(3-indolyl)propionyl cap, also called Compound No. 260) [des(1-3)-3-(3-Indolyl)propionyl-[AzaGly7,Arg(Me)9]MS10]	pIC50	6.49
YNWNSFGLXF (Har9; C-terminal amide, also called Compound No. 97) [[Har9]MS10]	pIC50	6.43

Query (binder): [dY]N[1Nal]NSF[azaGly]L[Arg(Me)]F-NH2 (N-terminus assumed; SMILES CNC(=N)NCCC[C@H](NC(=O)[C@H](CC(C)C)NC(=O)NNC(=O)[C@H](Cc1ccccc1)NC(=O)[C@H](CO)NC(=O)[C@H](CC(N)=O)NC(=O)[C@H](Cc1cccc2ccccc12)NC(=O)[C@H](CC(N)=O)NC(=O)[C@H](N)Cc1ccc(O)cc1)C(=O)N[C@@H](Cc1ccccc1)C(N)=O, also called Compound No. 245) [[D-Tyr1,Nal(1)3,AzaGly7,Arg(Me)9]MS10] ; field requested: pIC50
7.01
